# Tested on: Radical scavenging activity
# Measurement notes: Antioxidant activity assessed as DPPH radical scavenging activity at 100 uM after 20 mins by spectrophotometry
# Assay type: functional
Property name: Activity (%)
Write the number in % without appending the unit.

// returns reported Activity for input COc1cc(OC)c(C2=NNC(c3ccc4c(c3)c3ccccc3n4C)C2)c(OC)c1 (stereo not given)
86

// returns reported Activity for input Cn1c2ccccc2c2cc(C3CC(c4ccc(Cl)cc4Cl)=NN3)ccc21 (stereo not given)
92.1

// returns reported Activity for input Cn1c2ccccc2c2cc(C3CC(c4cccs4)=NN3)ccc21 (stereo not given)
85.3

Next:
// returns reported Activity for input Cn1c2ccccc2c2cc(C3CC(c4ccccc4)=NN3)ccc21 (stereo not given)
79.9

// returns reported Activity for input Cn1c2ccccc2c2cc(C3CC(c4ccc(Cl)cc4)=NN3)ccc21 (stereo not given)
79.3

* * *

# System: Radical scavenging activity
# Measurement notes: Antioxidant activity assessed as DPPH radical scavenging activity at 100 uM after 20 mins by spectrophotometry
# Assay type: functional
Examples of compounds with documented Activity follow.
Write the number in % without appending the unit.

// returns reported Activity for input COc1ccc(C2=NNC(c3ccc4c(c3)c3ccccc3n4C)C2)cc1 (stereo unspecified)
80.8

Next:
// returns reported Activity for input Cn1c2ccccc2c2cc(C3CC(c4ccc(Br)cc4)=NN3)ccc21 (stereo unspecified)
80.6

// returns reported Activity for input Cn1c2ccccc2c2cc(C3CC(c4ccc([N+](=O)[O-])cc4)=NN3)ccc21 (stereo unspecified)
81.1

// returns reported Activity for input Cn1c2ccccc2c2cc(C3CC(c4ccc(F)cc4)=NN3)ccc21 (stereo unspecified)
79.3

* * *

# Species: Homo sapiens
# Measurement notes: Selectivity ratio of inhibition of COX2 to inhibition of COX1
Kindly return True if reported Selectivity ratio is no lower than 3; return False if it is lower.

Threshold query (Selectivity ratio >= 3) on Cn1c2ccccc2c2cc(C3CC(c4cccs4)=NN3)ccc21 (stereo not given)
False

Threshold query (Selectivity ratio >= 3) on COc1ccc(C2=NNC(c3ccc4c(c3)c3ccccc3n4C)C2)cc1 (stereo not given)
True

Threshold query (Selectivity ratio >= 3) on Cn1c2ccccc2c2cc(C3CC(c4ccc(F)cc4)=NN3)ccc21 (stereo not given)
False

Threshold query (Selectivity ratio >= 3) on Cn1c2ccccc2c2cc(C3CC(c4ccc(Br)cc4)=NN3)ccc21 (stereo not given)
False

Threshold query (Selectivity ratio >= 3) on Cn1c2ccccc2c2cc(C3CC(c4ccccc4)=NN3)ccc21 (stereo not given)
False

Threshold query (Selectivity ratio >= 3) on Cn1c2ccccc2c2cc(C3CC(c4ccc([N+](=O)[O-])cc4)=NN3)ccc21 (stereo not given)
False

Next:
Threshold query (Selectivity ratio >= 3) on Cn1c2ccccc2c2cc(C3CC(c4ccccn4)=NN3)ccc21 (stereo not given)
False

Threshold query (Selectivity ratio >= 3) on Cn1c2ccccc2c2cc(C3CC(c4ccc(Cl)c(Cl)c4)=NN3)ccc21 (stereo not given)
False

Threshold query (Selectivity ratio >= 3) on COc1ccc(C2=NNC(c3ccc4c(c3)c3ccccc3n4C)C2)cc1OC (stereo not given)
True

Threshold query (Selectivity ratio >= 3) on Cn1c2ccccc2c2cc(C3CC(c4ccc(F)cc4F)=NN3)ccc21 (stereo not given)
False

* * *

Examples of molecules with documented Selectivity ratio follow.
# Organism: Homo sapiens
# Measurement notes: Selectivity ratio of inhibition of COX2 to inhibition of COX1
Keep the answer to the number alone.

Examples with their reported Selectivity ratio follow.
// returns reported Selectivity ratio for input Cn1c2ccccc2c2cc(C3CC(c4ccc(Cl)cc4Cl)=NN3)ccc21 (stereo not given)
1.68

// returns reported Selectivity ratio for input Cn1c2ccccc2c2cc(C3CC(c4ccc(Cl)cc4)=NN3)ccc21 (stereo not given)
1.24

// returns reported Selectivity ratio for input Cn1c2ccccc2c2cc(C3CC(c4cc(Cl)ccc4Cl)=NN3)ccc21 (stereo not given)
1.14

// returns reported Selectivity ratio for input COc1cc(OC)c(C2=NNC(c3ccc4c(c3)c3ccccc3n4C)C2)c(OC)c1 (stereo not given)
3.69

Next item in the queue.
// returns reported Selectivity ratio for input Cn1c2ccccc2c2cc(C3CC(c4ccc(F)c(F)c4)=NN3)ccc21 (stereo not given)
0.22

* * *

# Study system: Prostaglandin G/H synthase 1 (Homo sapiens)
# Measurement notes: Inhibition of COX1 peroxidase activity assessed as formation of TMPD at 100 uM by colorimetric analysis
Property name: inhibition (%)
Write the number in % without appending the unit.

Examples with their reported inhibition follow.
// returns reported inhibition for input Cn1c2ccccc2c2cc(C3CC(c4ccc(F)c(F)c4)=NN3)ccc21 (stereo not given)
90.8

// returns reported inhibition for input COc1cc(OC)c(C2=NNC(c3ccc4c(c3)c3ccccc3n4C)C2)c(OC)c1 (stereo not given)
23.5

// returns reported inhibition for input Cn1c2ccccc2c2cc(C3CC(c4ccc([N+](=O)[O-])cc4)=NN3)ccc21 (stereo not given)
14.2

// returns reported inhibition for input Cn1c2ccccc2c2cc(C3CC(c4cc(Cl)ccc4Cl)=NN3)ccc21 (stereo not given)
8.85

// returns reported inhibition for input Cn1c2ccccc2c2cc(C3CC(c4cccs4)=NN3)ccc21 (stereo not given)
18.5

// returns reported inhibition for input Cn1c2ccccc2c2cc(C3CC(c4ccc(Cl)c(Cl)c4)=NN3)ccc21 (stereo not given)
12.2

Next:
// returns reported inhibition for input Cn1c2ccccc2c2cc(C3CC(c4ccc(Cl)cc4Cl)=NN3)ccc21 (stereo not given)
24.1

// returns reported inhibition for input Cn1c2ccccc2c2cc(C3CC(c4ccccc4)=NN3)ccc21 (stereo not given)
10.2

// returns reported inhibition for input Cn1c2ccccc2c2cc(C3CC(c4ccccn4)=NN3)ccc21 (stereo not given)
20.1

// returns reported inhibition for input Cn1c2ccccc2c2cc(C3CC(c4ccc(F)cc4)=NN3)ccc21 (stereo not given)
46.2

* * *

# Measurement notes: Antioxidant activity assessed as H2O2-induced hydroxyl radical scavenging activity at 100 uM after 5 mins by spectrophotometry
# Format: functional
Examples of compounds with documented Activity follow.
Write the number in % without appending the unit.

Examples with their reported Activity follow.
// returns reported Activity for input Cn1c2ccccc2c2cc(C3CC(c4ccc(F)cc4)=NN3)ccc21 (stereo unspecified)
54.6

// returns reported Activity for input Cn1c2ccccc2c2cc(C3CC(c4ccc([N+](=O)[O-])cc4)=NN3)ccc21 (stereo unspecified)
64.8

// returns reported Activity for input COc1cc(OC)c(C2=NNC(c3ccc4c(c3)c3ccccc3n4C)C2)c(OC)c1 (stereo unspecified)
74.3

// returns reported Activity for input Cn1c2ccccc2c2cc(C3CC(c4ccc(F)cc4F)=NN3)ccc21 (stereo unspecified)
60.2

// returns reported Activity for input Cn1c2ccccc2c2cc(C3CC(c4ccc(Cl)cc4)=NN3)ccc21 (stereo unspecified)
55

Next:
// returns reported Activity for input Cn1c2ccccc2c2cc(C3CC(c4ccc(Cl)c(Cl)c4)=NN3)ccc21 (stereo unspecified)
65.1

// returns reported Activity for input Cn1c2ccccc2c2cc(C3CC(c4ccc(F)c(F)c4)=NN3)ccc21 (stereo unspecified)
63.2

// returns reported Activity for input Cn1c2ccccc2c2cc(C3CC(c4ccccc4)=NN3)ccc21 (stereo unspecified)
63.5

// returns reported Activity for input COc1ccc(C2=NNC(c3ccc4c(c3)c3ccccc3n4C)C2)cc1 (stereo unspecified)
58.2

* * *

# Tested on: Radical scavenging activity
# Measurement notes: Antioxidant activity assessed as DPPH radical scavenging activity at 100 uM after 20 mins by spectrophotometry
# Type: functional
Property name: Activity (%)
Write the number in % without appending the unit.

// returns reported Activity for input Cn1c2ccccc2c2cc(C3CC(c4ccc(Cl)c(Cl)c4)=NN3)ccc21 (configuration not stated)
87.4

// returns reported Activity for input Cn1c2ccccc2c2cc(C3CC(c4ccccn4)=NN3)ccc21 (configuration not stated)
72

// returns reported Activity for input COc1ccc(C2=NNC(c3ccc4c(c3)c3ccccc3n4C)C2)cc1OC (configuration not stated)
84

Next:
// returns reported Activity for input O=C1O[C@H]([C@@H](O)CO)C(O)=C1O
91.5

// returns reported Activity for input Cn1c2ccccc2c2cc(C3CC(c4ccc(F)c(F)c4)=NN3)ccc21 (configuration not stated)
79.8

// returns reported Activity for input Cn1c2ccccc2c2cc(C3CC(c4ccc(F)cc4F)=NN3)ccc21 (configuration not stated)
83.8

// returns reported Activity for input Cn1c2ccccc2c2cc(C3CC(c4cc(Cl)ccc4Cl)=NN3)ccc21 (configuration not stated)
91.7

* * *

# Measurement notes: Antioxidant activity assessed as H2O2-induced hydroxyl radical scavenging activity at 100 uM after 5 mins by spectrophotometry
# Type: functional
Kindly return 1 if reported Activity is no lower than 70%; return 0 if it is lower.

See these solved cases before continuing.
Threshold query (Activity >= 70%) on Cn1c2ccccc2c2cc(C3CC(c4ccc(Br)cc4)=NN3)ccc21 (configuration not stated)
0

Threshold query (Activity >= 70%) on O=C1O[C@H]([C@@H](O)CO)C(O)=C1O
1

Threshold query (Activity >= 70%) on Cn1c2ccccc2c2cc(C3CC(c4cccs4)=NN3)ccc21 (configuration not stated)
0

Threshold query (Activity >= 70%) on Cn1c2ccccc2c2cc(C3CC(c4ccccn4)=NN3)ccc21 (configuration not stated)
0

Note: attention shifts to another entry.
Threshold query (Activity >= 70%) on Cn1c2ccccc2c2cc(C3CC(c4cc(Cl)ccc4Cl)=NN3)ccc21 (configuration not stated)
1
